target desc: rat NPRA (Rattus norvegicus)
Construct: Full-Length cDNA Cloning and Generation of Cell Lines Overexpressing Natriuretic Peptide Receptors (NPRs); expressed in transfected cells; host or cells: Jump-in T-Rex HEK293 cells, pJTI R4 CMV-TO MCS pA vector, tetracycline induction
Sequence (P18910 29-1057): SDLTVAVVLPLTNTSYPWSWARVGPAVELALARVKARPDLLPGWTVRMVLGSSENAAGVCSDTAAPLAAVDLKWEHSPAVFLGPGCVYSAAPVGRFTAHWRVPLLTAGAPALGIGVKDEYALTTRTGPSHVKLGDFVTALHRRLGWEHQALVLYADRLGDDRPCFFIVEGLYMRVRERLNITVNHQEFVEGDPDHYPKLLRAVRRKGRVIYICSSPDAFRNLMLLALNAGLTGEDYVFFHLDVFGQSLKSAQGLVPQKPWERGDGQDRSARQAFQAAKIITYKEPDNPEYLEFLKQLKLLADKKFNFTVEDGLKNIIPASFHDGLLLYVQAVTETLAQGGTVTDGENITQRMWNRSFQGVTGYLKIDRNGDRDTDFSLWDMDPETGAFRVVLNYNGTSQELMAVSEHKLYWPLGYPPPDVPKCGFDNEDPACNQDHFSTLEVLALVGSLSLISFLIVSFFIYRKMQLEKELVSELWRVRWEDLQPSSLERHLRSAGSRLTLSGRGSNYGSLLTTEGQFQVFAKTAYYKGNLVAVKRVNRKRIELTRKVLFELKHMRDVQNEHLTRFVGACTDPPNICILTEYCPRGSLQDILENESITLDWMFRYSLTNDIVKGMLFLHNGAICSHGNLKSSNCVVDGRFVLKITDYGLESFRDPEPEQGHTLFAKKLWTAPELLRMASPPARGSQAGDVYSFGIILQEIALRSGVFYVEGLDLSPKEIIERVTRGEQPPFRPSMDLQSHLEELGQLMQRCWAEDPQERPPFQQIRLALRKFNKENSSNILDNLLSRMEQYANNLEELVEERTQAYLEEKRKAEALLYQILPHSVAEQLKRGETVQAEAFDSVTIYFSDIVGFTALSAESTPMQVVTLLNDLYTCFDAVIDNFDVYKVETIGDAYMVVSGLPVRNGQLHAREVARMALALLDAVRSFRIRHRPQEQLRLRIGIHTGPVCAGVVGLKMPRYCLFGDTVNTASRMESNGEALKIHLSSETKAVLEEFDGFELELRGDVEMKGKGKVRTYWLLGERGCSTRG
protocol summary: Rat NPRA cGMP activity assay (HTRF) in HEK293 cells overexpressing NPRA
Type: cell-based
measurement parameters: assay buffer with 0.1% casein, read-out: cGMP Assay (EC50, pM) w/Casein rNPRA
Numbered stars: 1 amine (or outer) side, 2 acyl side, 3 side chain; on linkers, the order of the positions; unused ones are H or OH. Bridge positions count the residues as written; N and C are the ends. Square brackets hold non-standard residues; d marks the D form. * marks the point of attachment. PEG24 = NCCOCCOCCOCCOCCOCCOCCOCCOCCOCCOCCOCCOCCOCCOCCOCCOCCOCCOCCOCCOCCOCCOCCOCCOCCC(=O)O; C20 diacid = O=C(O)CCCCCCCCCCCCCCCCCCC(=O)*; γGlu = O=C(O)[C@H](CCC(=O)[*:2])N[*:1]; 4Pal = N[C@@H](Cc1ccncc1)C(=O)O; Dap = NC[C@H](N)C(=O)O; AEEA = NCCOCCOCC(=O)O; CH2 = C([*:1])[*:2]; βAla = NCCC(=O)O
value type: EC50 (pM)
Your answer should be a plain number; it is taken to be in pM.

Look up EC50: {C20 diacid-γGlu}-EKEKEKG[PEG24]EKPRSSCFGKGIDRIGHQSGLGCPSFRHSGSPSSGAPPPSG-NH2 (linker 15-31 via CH2) [Example 133]
581000

Same read-out for {C20 diacid-γGlu}-EKEKEKGEKPRSSCFG[Dap]RIDRIGHYSGLGCPSFRHGSPSSGAPPPS-NH2 (linker 14-30 via CH2) [Example 136] ?
32900

# iterate: {C20 diacid-γGlu}-EKEKEKG[AEEA][AEEA][AEEA][AEEA]S[4Pal]RRSSCFGGRIDRIGHQSGLGCPSFRHGGKSSGAPPPS-NH2 (linker 18-34 via CH2) [Example 83]
16700

For {C20 diacid-γGlu}-EKEKEKGS[4Pal]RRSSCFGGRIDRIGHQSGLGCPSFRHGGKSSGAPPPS-NH2 (linker 14-30 via CH2) [Example 67] then?
18800

Then what about the substance {C20 diacid-γGlu}-EKEKEKGEKPRSSCFG[Dap]RIDRIGHQSGLGCPSFRHGSPSSGAPPPS-NH2 (linker 14-30 via CH2) [Example 137] ?
76900

Now the same for {C20 diacid-γGlu}-EKEKEKG[AEEA][AEEA][AEEA][AEEA][AEEA][AEEA]EK[βAla]RSSCFGKRIDRIGHQSGLGCPSFRHGSPSSGAPPPS-NH2 (linker 20-36 via CH2) [Example 119]
17900

And what about the substance {C20 diacid-γGlu}-EKEKEKGEKPRSSCFGG[Dap]IDRIGHQSGLGCPSFRHGSPSSGAPPPS-NH2 (linker 14-30 via CH2) [Example 139] ?
200000
